# TARGET_OR_SYSTEM: Transcription factor Sp1 (Homo sapiens) (UniProt P08047)
# Sequence (P08047 whole entry, looked up): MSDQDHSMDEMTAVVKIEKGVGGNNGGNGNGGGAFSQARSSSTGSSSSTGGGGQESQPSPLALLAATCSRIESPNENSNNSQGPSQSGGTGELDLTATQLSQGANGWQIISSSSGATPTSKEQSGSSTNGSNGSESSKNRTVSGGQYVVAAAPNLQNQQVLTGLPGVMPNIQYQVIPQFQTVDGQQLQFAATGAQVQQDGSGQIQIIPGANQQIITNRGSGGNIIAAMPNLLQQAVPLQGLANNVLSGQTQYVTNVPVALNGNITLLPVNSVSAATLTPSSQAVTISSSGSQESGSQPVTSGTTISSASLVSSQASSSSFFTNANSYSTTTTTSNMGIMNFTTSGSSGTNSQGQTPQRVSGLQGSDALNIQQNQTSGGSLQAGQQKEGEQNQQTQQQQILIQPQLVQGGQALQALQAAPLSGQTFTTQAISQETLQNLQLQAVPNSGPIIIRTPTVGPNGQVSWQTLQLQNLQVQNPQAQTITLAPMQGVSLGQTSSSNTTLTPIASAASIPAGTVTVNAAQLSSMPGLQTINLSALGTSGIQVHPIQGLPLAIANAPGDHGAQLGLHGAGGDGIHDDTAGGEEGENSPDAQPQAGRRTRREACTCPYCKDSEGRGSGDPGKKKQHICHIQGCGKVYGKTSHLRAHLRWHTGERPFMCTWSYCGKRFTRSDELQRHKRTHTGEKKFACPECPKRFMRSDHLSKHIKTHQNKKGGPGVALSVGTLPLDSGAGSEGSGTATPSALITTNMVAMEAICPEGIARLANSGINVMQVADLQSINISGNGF
# ASSAY_COMMENT: ATG_Sp1_CIS: Attagene CIS-FACTORIAL HepG2 Assay for human Specificity Protein 1 (Sp1) (AID 2282961)
# TEST_CONDITIONS: HepG2 Sp1 cis-reporter transcription, actives raise or lower the signal
Active and inactive are the calls of the source. How the source made its calls: active means hit-call score of the fitted dose curve at least 0.9, where 1 is the maximum; inactive means score below 0.9.
Labels: yes for active, no for inactive

>  <COMPOUND>
C=CC/C=C/C/C=C/C/C=C/C

>  <GROUP_LABEL>
no

$$$$
>  <COMPOUND>
C=CC(=O)OCC(F)(F)C(F)(F)C(F)(F)C(F)(F)COC(=O)C=C

>  <GROUP_LABEL>
yes

$$$$
>  <COMPOUND>
C=CC(F)(F)C(F)(F)C(F)(F)C(F)(F)C(F)(F)C(F)(F)C(F)(F)C(F)(F)F

>  <GROUP_LABEL>
no

$$$$
>  <COMPOUND>
O=S(=O)(OCC(F)F)C(F)(F)F

>  <GROUP_LABEL>
no

$$$$
>  <COMPOUND>
FC(F)(F)C(F)(F)C(F)(F)C(F)(F)CCI

>  <GROUP_LABEL>
no

$$$$
>  <COMPOUND>
OC[C@@H](O)[C@@H](O)[C@H](O)[C@@H](O)CO

>  <GROUP_LABEL>
no

$$$$
>  <COMPOUND>
FC(F)(F)C(F)(F)C(F)(F)C(F)(F)C(F)(F)C(F)(F)CCS

>  <GROUP_LABEL>
no

$$$$
>  <COMPOUND>
Cc1ccc(S(=O)(=O)OCC(F)(F)C(F)(F)C(F)(F)C(F)(F)C(F)(F)C(F)F)cc1

>  <GROUP_LABEL>
no

$$$$
>  <COMPOUND>
CO[Si](OC)(c1ccccc1)c1ccccc1

>  <GROUP_LABEL>
no

$$$$
>  <COMPOUND>
O=C(CC(=O)C(F)(F)C(F)(F)F)C(F)(F)F

>  <GROUP_LABEL>
no

$$$$
>  <COMPOUND>
CC/C=C\CCOC(C)=O

>  <GROUP_LABEL>
no

$$$$
>  <COMPOUND>
CC(C)=CCCC(C)CCOC(=O)C(C)C (configuration not stated)

>  <GROUP_LABEL>
no

$$$$

---

# ASSAY_COMMENT: Tanguay_ZF_120hpf_DP24: Oregon State University Tanguay Lab 24 Hour Post-fertilization zebrafish Assay for Delayed Development (AID 2284390)
The source made the active and inactive calls. How the source made its calls: active means hit-call score of the fitted dose curve at least 0.9, where 1 is the maximum; inactive means score below 0.9.
ASSAY_ENDPOINT: outcome

>  <COMPOUND_SMILES>
OCC(F)(F)C(F)(F)C(F)(F)F

>  <OBSERVED>
inactive

$$$$
>  <COMPOUND_SMILES>
O=S(=O)(OCCOC(F)(F)F)C(F)(F)F

>  <OBSERVED>
inactive

$$$$
>  <COMPOUND_SMILES>
FC(F)(F)C(F)(F)C(F)(F)N(C(F)(F)C(F)(F)C(F)(F)F)C(F)(F)C(F)(F)C(F)(F)F

>  <OBSERVED>
inactive

$$$$
>  <COMPOUND_SMILES>
Cc1ccc(S(=O)(=O)OCC(F)(F)C(F)(F)C(F)(F)C(F)(F)C(F)(F)C(F)F)cc1

>  <OBSERVED>
inactive

$$$$
>  <COMPOUND_SMILES>
FC(F)(F)C(F)(F)C(F)(F)C(F)(F)C(F)(F)C(F)(F)C(F)(F)I

>  <OBSERVED>
inactive

$$$$

---

# TARGET_OR_SYSTEM: Estrogen receptor (Homo sapiens)
# ASSAY_COMMENT: ATG_ERa_TRANS: Attagene TRANS-FACTORIAL HepG2 Assay for human Estrogen Receptor alpha (ERa) (AID 2282970)
# TEST_CONDITIONS: HepG2 Attagene TRANS ERa GAL4 reporter, mRNA
# Method: ATG_TRANS is a cell-based, multiplexed-readout assay that uses HepG2, a human liver cell line, with measurements taken at 24 hours after chemical dosing in a 24-well plate.ATG_ERa_TRANS is one of 30 assay component(s) measured or calculated from the ATG_TRANS assay. […] This assay endpoint, ATG_ERa_TRANS, was analyzed in the positive analysis fitting direction relative to DMSO as the negative control and baseline of activity. […]
Inconclusive results are not listed. Activity calls are given as the source filed them. Rule for the calls: active = hit-call score of the fitted dose curve at least 0.9, where 1 is the maximum; inconclusive = response in the unintended direction; inactive = score below 0.9.
Labels: class 1 (active), class 0 (inactive)

>  <MOLECULE>
OCC(F)(F)C(F)(F)C(F)(F)C(F)(F)C(F)(F)C(F)(F)F

>  <GROUP_LABEL>
class 0

$$$$
>  <MOLECULE>
CCCCCC=O

>  <GROUP_LABEL>
class 0

$$$$
>  <MOLECULE>
O=P(O)(O)OCCC(F)(F)C(F)(F)C(F)(F)C(F)(F)C(F)(F)C(F)(F)F

>  <GROUP_LABEL>
class 1

$$$$
>  <MOLECULE>
Cc1cc(C)cc(O)c1

>  <GROUP_LABEL>
class 0

$$$$
>  <MOLECULE>
CS(C)(=O)=O

>  <GROUP_LABEL>
class 0

$$$$
>  <MOLECULE>
FC(F)(Br)C(F)(F)C(F)(F)C(F)(F)C(F)(F)C(F)(F)Br

>  <GROUP_LABEL>
class 1

$$$$
>  <MOLECULE>
CC(C)(C)c1ccc(OC2CCCCC2O)cc1 (stereo unspecified)

>  <GROUP_LABEL>
class 0

$$$$
>  <MOLECULE>
FC(F)(F)C(F)(F)C(F)(F)CI

>  <GROUP_LABEL>
class 0

$$$$
>  <MOLECULE>
CC(C)(C)C(=O)CC(=O)C(F)(F)C(F)(F)C(F)(F)F

>  <GROUP_LABEL>
class 0

$$$$
>  <MOLECULE>
CCO[Si](CCC(F)(F)C(F)(F)C(F)(F)C(F)(F)C(F)(F)C(F)(F)F)(OCC)OCC

>  <GROUP_LABEL>
class 0

$$$$
>  <MOLECULE>
CNC(=S)NC

>  <GROUP_LABEL>
class 1

$$$$
>  <MOLECULE>
C=CC(=O)OCC(F)(F)C(F)(F)C(F)(F)C(F)(F)COC(=O)C=C

>  <GROUP_LABEL>
class 1

$$$$
>  <MOLECULE>
CC/C=C\CCOC(C)=O

>  <GROUP_LABEL>
class 0

$$$$
>  <MOLECULE>
CCCCOCCOCCOC(=O)CCCCC(=O)OCCOCCOCCCC

>  <GROUP_LABEL>
class 0

$$$$
>  <MOLECULE>
CCCCCCOC(=O)c1ccccc1O

>  <GROUP_LABEL>
class 1

$$$$
>  <MOLECULE>
CCCCCCOC(=O)c1ccccc1

>  <GROUP_LABEL>
class 0

$$$$
>  <MOLECULE>
FC(F)(F)C(F)(F)C(F)(F)C(F)(F)CCI

>  <GROUP_LABEL>
class 1

$$$$
>  <MOLECULE>
O=C(O)C(F)(F)C(F)(F)C(F)(F)F

>  <GROUP_LABEL>
class 1

$$$$
>  <MOLECULE>
OC[C@@H](O)[C@@H](O)[C@H](O)[C@@H](O)CO

>  <GROUP_LABEL>
class 1

$$$$
>  <MOLECULE>
FC(F)(F)C(F)(F)C(F)(F)C(F)(F)C(F)(F)C(F)(F)CC1CO1 (stereo unspecified)

>  <GROUP_LABEL>
class 0

$$$$
>  <MOLECULE>
CC(=O)Nc1ccc(N=Nc2cc(C)ccc2O)cc1

>  <GROUP_LABEL>
class 0

$$$$

---

# Read-out: Plasminogen activator inhibitor-1 (PAI1), SERPINE1 (gene 5054)
# ASSAY_COMMENT: BSK_hDFCGF_PAI1: BioMAP Diversity Plus: hDFCGF Assay for Plasminogen activator inhibitor-1 (PAI1) Biomarker Activity (AID 2283066)
# TEST_CONDITIONS: primary human foreskin fibroblasts; actives raise or lower the signal
# Experimental: BSK_hDFCGF is a cell-based, multiplexed-readout assay that uses foreskin fibroblast, a human skin primary cell, with measurements taken at 24 hours after chemical dosing in a 96-well plate.BSK_hDFCGF_PAI1 is an assay component measured in the BSK_hDFCGF assay. It measures PAI-1 antibody related to regulation of gene expression using ELISA technology.Data from the assay component BSK_hDFCGF_PAI1 was analyzed into 1 assay endpoint. […]
Calls of active or inactive are those of the source. Rule for the calls: active = hit-call score of the fitted dose curve at least 0.9, where 1 is the maximum; inactive = score below 0.9.
Labels: class 1 (active), class 0 (inactive)

>  <COMPOUND>
CCCCCCC(C)OC(=O)CCCCC(=O)OC(C)CCCCCC (stereo unspecified)

>  <GROUP_LABEL>
class 0

$$$$
>  <COMPOUND>
CCN(CC)c1ccc2c(C)cc(=O)oc2c1

>  <GROUP_LABEL>
class 0

$$$$
>  <COMPOUND>
CC(CCl)OP(=O)(OC(C)CCl)OC(C)CCl (stereo unspecified)

>  <GROUP_LABEL>
class 1

$$$$
>  <COMPOUND>
NC(=O)C(F)(F)C(F)(F)C(F)(F)C(F)(F)F

>  <GROUP_LABEL>
class 0

$$$$
>  <COMPOUND>
O=C(CC(=O)C(F)(F)C(F)(F)F)C(F)(F)F

>  <GROUP_LABEL>
class 0

$$$$
>  <COMPOUND>
C=CC(F)(F)C(F)(F)C(F)(F)C(F)(F)C(F)(F)C(F)(F)C(F)(F)C(F)(F)F

>  <GROUP_LABEL>
class 0

$$$$
